FYI, the data here is from ChEMBL document CHEMBL1141535.

experiment_summary: AUC in Sprague-Dawley rat at 5 mg/kg, po
Format: ADME, organism-based
Design: dose 5 mg/kg, route oral
details: plasma
observed_property: AUC (µM·h)
Write down the numeric answer in µM·h and omit the unit.

**Q:** Look at this molecule and give its reported AUC. `CC[C@@H](C)Nc1nc2ccc(-c3c(-c4ccccc4F)n[nH]c3N)cc2s1`
**A:** 2.27

====

Could you please report measured IC50 for the items listed next?
Tested on: PBMC
experiment_summary: Inhibition of LPS-induced TNFalpha production in human PBMC
Format: functional, cell-based
Write down the numeric answer in nM and omit the unit.

**Q:** Value wanted: IC50 (PBMC) of entry `CC[C@H](C)Nc1nc2ccc(-c3[nH]cnc3-c3ccccc3F)cc2s1`
**A:** 20

**Q:** Repeat for the following compound: `CC(C)Nc1nc2ccc(-c3ocnc3-c3ccccc3)cc2s1`
**A:** 96

**Q:** Repeat for the following compound: `CC(C)Nc1nc2ccc(-c3[nH]cnc3-c3ccccc3)cc2s1`
**A:** 107

**Q:** Repeat for the following compound: `CC(C)Nc1nc2ccc(-c3ccnn3-c3cccc(F)c3)cc2s1`
**A:** 171

**Q:** Repeat for the following compound: `CC[C@@H](C)Nc1nc2ccc(-c3ocnc3-c3ccccc3F)cc2s1`
**A:** 27

**Q:** Repeat for the following compound: `CC(C)Nc1nc2ccc(-c3ccnn3-c3ccccc3F)cc2s1`
**A:** 249

**Q:** Repeat for the following compound: `CCNc1nc2ccc(-c3ocnc3-c3ccccc3F)cc2s1`
**A:** 167

**Q:** Repeat for the following compound: `CC[C@H](C)Nc1nc2ccc(-c3ocnc3-c3ccccc3F)cc2s1`
**A:** 30

**Q:** Repeat for the following compound: `CC(C)Nc1nc2ccc(-c3ccnn3-c3ccccc3)cc2s1`
**A:** 213
